assay system: Tyrosine-protein kinase ABL1 (Homo sapiens)
experimental conditions: Compound concentration 20.0 uM, Protein concentration 2.0 uM, Result type QC Liability
Description: Thermal Shift Assay. Domain: start/stop: S229-K512
measured quantity: ΔTm (°C)
Answers are plain numbers, in °C.

Consider the following items and state reported ΔTm for each.
1. O=C1Nc2nc(-c3c(O)cccc3OCC3CC3)cc([C@@H]3CCCNC3)c2CO1
2. c1ccc2c(-c3coc4cc(-c5ccc(N6CCNCC6)cc5)cnc34)ccnc2c1
3. Cc1ncsc1-c1ccc(CNC(=O)[C@@H]2C[C@H](O)CN2C(=O)[C@@H](NC(=O)C2(F)CC2)C(C)(C)C)c(OCCOc2ccc(CN3CCN(c4cc(-c5ccccc5O)nnc4N)CC3)cc2)c1 (relative stereo)
4. CC(C)S(=O)(=O)c1ccccc1Nc1nc(N[C@@H]2CCCN(CCCCCCCNC(=O)COc3cccc4c3C(=O)N(C3CCC(=O)N(C)C3=O)C4=O)C2)ncc1Cl (some centres undefined)

1: 0.61; 2: 3.66; 3: 0.51; 4: 1.22
